Tested on: COLO-205 (Colorectal Carcinoma)
measurementProtocol: combination Emax (second highest fraction inhibited in the dose matrix, 72 h); higher = more inhibition; extreme values may be limits of the assay
This listing pairs compounds with measured combination Emax.
measure: combination Emax

1. CCc1c2c(nc3ccc(O)cc13)-c1cc3c(c(=O)n1C2)COC(=O)[C@]3(O)CC [SN-38] + O=C(c1cc(Cc2n[nH]c(=O)c3ccccc23)ccc1F)N1CCN(C(=O)C2CC2)CC1 [Olaparib] (first compound max 0.3 µM, 7x7, partner max 10 µM) :: 0.618
2. CC1(C)CCC(CN2CCN(c3ccc(C(=O)NS(=O)(=O)c4ccc(NCC5CCOCC5)c([N+](=O)[O-])c4)c(Oc4cnc5[nH]ccc5c4)c3)CC2)=C(c2ccc(Cl)cc2)C1 [Venetoclax] + C[C@@H]1COCCN1C2=NC(=NC(=C2)C3(CC3)[S@](=N)(=O)C)C4=C5C=CNC5=NC=C4 [AZD6738] (first compound max 1 µM, 7x7, partner max 10 µM) :: 0.344

----------
Test system: HOS (Osteosarcoma)
measurementProtocol: Bliss excess, mean over the matrix (fraction); higher = more synergy
measure: Bliss excess

1. Cc1cc2ncnn2cc1Nc1ncc2c(n1)n(C1CCOCC1)c(=O)n2C [AZD7648] + O=C(c1cc(Cc2n[nH]c(=O)c3ccccc23)ccc1F)N1CCN(C(=O)C2CC2)CC1 [Olaparib] (first compound max 10 µM, 7x7, partner max 10 µM) :: 0.0023
2. Cc1c2c(nn1C)CSCc1cc(n(C)n1)CSc1cc(c3ccccc3c1)OCCCc1c(C(=O)O)n(C)c3c-2c(Cl)ccc13 [AZD5991] + C[C@@H]1COCCN1C2=NC(=NC(=C2)C3(CC3)[S@](=N)(=O)C)C4=C5C=CNC5=NC=C4 [AZD6738] (first compound max 1 µM, 7x7, partner max 10 µM) :: 0.0356

----------
System: HO-1-N-1 (Oral Cavity Carcinoma)
measurementProtocol: combination Emax (second highest fraction inhibited in the dose matrix, 72 h); higher = more inhibition; extreme values may be limits of the assay
Collected combination Emax values appear next to each entry.
measure: combination Emax

1. Cc1c2c(nn1C)CSCc1cc(n(C)n1)CSc1cc(c3ccccc3c1)OCCCc1c(C(=O)O)n(C)c3c-2c(Cl)ccc13 [AZD5991] + CS(=O)(=O)CCNCc1ccc(-c2ccc3ncnc(Nc4ccc(OCc5cccc(F)c5)c(Cl)c4)c3c2)o1 [Lapatinib] (first compound max 1 µM, 7x7, partner max 10 µM) :: 0.962
2. CN(C)CCCOc1ccc(-c2ccc3ncc4c(c3c2)n(C2CCOCC2)c(=O)n4C)cn1 [AZD0156] + C=CCn1c(=O)c2cnc(Nc3ccc(N4CCN(C)CC4)cc3)nc2n1-c1cccc(C(C)(C)O)n1 [AZD1775] (first compound max 1 µM, partner max 1 µM) :: 0.348

----------
Test system: COLO-205 (Colorectal Carcinoma)
measurementProtocol: Bliss excess, mean over the matrix (fraction); higher = more synergy
measure: Bliss excess

1) Cc1cc2ncnn2cc1Nc1ncc2c(n1)n(C1CCOCC1)c(=O)n2C [AZD7648] + CN(C)CCCOc1ccc(-c2ccc3ncc4c(c3c2)n(C2CCOCC2)c(=O)n4C)cn1 [AZD0156] (first compound max 10 µM, 7x7, partner max 1 µM) :: 0.0271
2) CC(=O)c1c(C)c2cnc(Nc3ccc(N4CCNCC4)cn3)nc2n(C2CCCC2)c1=O [Palbociclib] + CN(CC[C@H](CSC1=CC=CC=C1)NC2=C(C=C(C=C2)S(=O)(=O)NC(=O)C3=CC=C(C=C3)N4CCC(CC4)[C@H](C5=CC=CC=C5C6=CC=C(C=C6)Cl)O)S(=O)(=O)C(F)(F)F)CCO [AZD4320] (first compound max 10 µM, 7x7, partner max 1 µM) :: -0.0497
3) COc1cccc2c1C(=O)c1c(O)c3c(c(O)c1C2=O)C[C@@](O)(C(=O)CO)C[C@@H]3O[C@H]1C[C@H](N)[C@H](O)[C@H](C)O1 [Doxorubicin] + Cc1cc2ncnn2cc1Nc1ncc2c(n1)n(C1CCOCC1)c(=O)n2C [AZD7648] (first compound max 1 µM, 7x7, partner max 10 µM) :: -0.0041

Recorded values, source the supplement of paper PMC11061612.
